B1: library; numbered along this chain (parent)
chain: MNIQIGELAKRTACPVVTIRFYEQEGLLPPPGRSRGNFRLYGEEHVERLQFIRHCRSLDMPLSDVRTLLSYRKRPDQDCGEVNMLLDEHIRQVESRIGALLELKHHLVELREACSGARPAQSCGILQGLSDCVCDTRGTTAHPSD

Variants of: B1
experimental-protocol: sfGFP reporter fluorescence (15 h) (µM FITC); higher = stronger transcriptional activation
experimental-conditions: library round: Round 1; ligand: 30 µM Zn
Please provide measured sfGFP reporter fluorescence for the entries that follow.
Give bare numbers.

Field: example entries. Status: answers known.
1. MNIQIGELAKRTACPVVTIRFYEQEGLLPPPGRSRGNFRLYGEEHVERLQFIRHCRSLDMPLSDVRTLLSYRKRPDQDCGEVNMLLDEHIRQVESRIGALLELKHHLVELIEACSGARPAQSCGILQGLSDCVPDTRGTTAHPSD [R111I C134P] = 0.228
2. MNIQIGELAKRTACPVVTIRFYEQEGLLPPPGRSRGNFRLYGEEHVERLQFIRHCRSLDMPLSDVRTLLSYRKRPDQDCGEVNMLLDEHIRQVESRIGALLELKHHLVELREACSGARPAQSCGILQGLSLCVCATRGTTAHPSD [D131L D135A] = 0.476
3. MNIQIGELAKRTACPVVTIRFYEQEGLLPPPGRSRGNFRLYGEEHVERLQFIRHCRSLDMPLSDVRTLLSYRKRPDQDCGEVIMLLDEHIRQVESRIGALLELVHHLVELREACSGARPAQSCGILQGLSDCVCDTRGTTAHPSD [N83I K104V] = 0.0679

So what does the record say about sfGFP reporter fluorescence for MNIQIGELAKRTACPVVTIRFYEQEGLLPPPGRSRGNFRLYGEEHVERLQFIRHCRSLDMPLSDVRTLLSYRKRPDQDCGEVMMLLDEHIRQVESRIGALLELKHHLVELREACSGARPAQSCGILQGLSACVCDTRGTTAHPSD [N83M D131A] ? 0.065
